target: UniProt:P31749; assay type: biochemical; conditions: AKT1; 1 μM compound concentration
observedProperty: POC (Percent of control) AKT1 (POC)
Give bare numbers, in POC.

compound: c1cnc(Nc2cccc3[nH]ncc23)c(-c2ncnc3[nH]cnc23)c1 [Example 18]
POC (Percent of control) AKT1 / POC: 103

Respectfully, I request POC (Percent of control) AKT1 for each entry included below.
1. Cc1nc(N)cc(-c2cccnc2Nc2cccc3[nH]ncc23)n1 [Example 27]
2. Cc1nc(N)nc(-c2cc(CN3CCN(S(C)(=O)=O)CC3)cnc2Nc2cccc(O)c2)n1 [Example 30]
3. COc1ccc(Nc2ncc(Cc3ccc(S(C)(=O)=O)cc3)cc2-c2nc(C)nc3[nH]cnc23)cn1 [Example 103]

Ans:
1: 98; 2: 102; 3: 94

----------
molecular target: UniProt:P49841; type: biochemical; conditions: GSK3 beta; 1 μM compound concentration
Please go through the items and note down their POC (Percent of control) GSK3 beta.
One number for each entry, in POC.

smilesCode: COc1ccc(Nc2ncccc2-c2nc(C)nc3[nH]cnc23)cn1
POC (Percent of control) GSK3 beta [POC]: 101

smilesCode: Cc1nc(-c2cccnc2Nc2cccc3[nH]ncc23)c2nc[nH]c2n1
POC (Percent of control) GSK3 beta [POC]: 101

smilesCode: Cc1nc(N)cc(-c2cccnc2Nc2cccc3[nH]ncc23)n1
POC (Percent of control) GSK3 beta [POC]: 80

Value sought for every listed molecule: POC (Percent of control) GSK3 beta.
1. c1cnc(Nc2cccc3[nH]ccc23)c(-c2ncnc3[nH]cnc23)c1
2. Cc1cnc(Nc2cccc3[nH]ncc23)c(-c2nc(C)nc(N)n2)c1

Ans:
1: 79; 2: 97

----------
biological target: ProfilerPro Kinase Selectivity Assay Kit kinases (Homo sapiens, UniProt P49841); assay type: biochemical; conditions: GSK3 beta; 1 μM compound concentration
Could you please report measured POC (Percent of control) GSK3 beta for the items listed next?
Give bare numbers, in POC.

Known results for compounds:
smilesCode: Cc1nc(N)nc(-c2cc(CN3CCN(S(C)(=O)=O)CC3)cnc2Nc2cccc(O)c2)n1
observedProperty: POC (Percent of control) GSK3 beta
unitOfMeasure: POC
testValue: 104
//
smilesCode: Cc1nc(N)nc(-c2cccnc2Nc2cccc(O)c2)n1
observedProperty: POC (Percent of control) GSK3 beta
unitOfMeasure: POC
testValue: 96
//
smilesCode: c1cnc(Nc2cccc3[nH]ncc23)c(-c2ncnc3[nH]cnc23)c1
observedProperty: POC (Percent of control) GSK3 beta
unitOfMeasure: POC
testValue: 92

// each compound listed below needs its POC (Percent of control) GSK3 beta
1. COc1ccc(Nc2ncc(CN3CCN(C(C)=O)CC3)cc2-c2nc(C)nc3[nH]cnc23)cn1
2. COc1ccc(Nc2ncccc2-c2ncnc3[nH]cnc23)cn1

Ans:
1. 100
2. 95

----------
For each entry below, report its POC (Percent of control) CAMK4 value.
biological target: ProfilerPro Kinase Selectivity Assay Kit kinases (Homo sapiens); assay type: biochemical; conditions: CAMK4; 1 μM compound concentration
Numbers only, in POC.

smilesCode: Cc1cnc(Nc2cccc3[nH]ncc23)c(-c2nc(C)nc(N)n2)c1
POC (Percent of control) CAMK4 (POC): 91

Please report POC (Percent of control) CAMK4 for every entry that follows.
1. Cc1nc(N)nc(-c2cc(CN3CCN(S(C)(=O)=O)CC3)cnc2Nc2cccc(O)c2)n1
2. Cc1nc(N)nc(-c2cccnc2Nc2cccc(O)c2)n1
3. Cc1nc(N)cc(-c2cccnc2Nc2cccc3[nH]ncc23)n1
4. COc1ccc(Nc2ncc(Cc3ccc(S(C)(=O)=O)cc3)cc2-c2nc(C)nc3[nH]cnc23)cn1
5. Cc1cnc(Nc2cccc3[nH]ccc23)c(-c2nc(C)nc(N)n2)c1
6. COc1ccc(Nc2ncccc2-c2nc(C)nc3[nH]cnc23)cn1
7. CCc1cnc(Nc2ccc(OC)nc2)c(-c2nc(C)nc3[nH]cnc23)c1
8. Cc1nc(-c2cccnc2Nc2cccc3[nH]ncc23)c2nc[nH]c2n1

Ans:
[94, 98, 56, 95, 96, 95, 95, 93]

Here are 3 compounds. What values of POC (Percent of control) CAMK4 were reported for them?
1. Cc1nc(N)nc(-c2cccnc2Nc2cccc3[nH]ccc23)n1
2. COc1ccc(Nc2ncc(CN3CCN(C(C)=O)CC3)cc2-c2nc(C)nc3[nH]cnc23)cn1
3. COc1ccc(Nc2ncccc2-c2ncnc3[nH]cnc23)cn1

Ans:
1: 95; 2: 109; 3: 100

Dear colleague, could you please provide POC (Percent of control) CAMK4 for the compounds listed below?
1. c1cnc(Nc2cccc3[nH]ccc23)c(-c2ncnc3[nH]cnc23)c1
2. c1cnc(Nc2cccc3[nH]ncc23)c(-c2ncnc3[nH]cnc23)c1

Ans:
1. 77
2. 71

----------
Kindly supply the reported Ki values for the records listed here.
molecular target: PI3Kα (Homo sapiens (Human)); conditions: read-out: PI3Kα AlphaScreen ® Ki
Sequence (P42336 whole entry): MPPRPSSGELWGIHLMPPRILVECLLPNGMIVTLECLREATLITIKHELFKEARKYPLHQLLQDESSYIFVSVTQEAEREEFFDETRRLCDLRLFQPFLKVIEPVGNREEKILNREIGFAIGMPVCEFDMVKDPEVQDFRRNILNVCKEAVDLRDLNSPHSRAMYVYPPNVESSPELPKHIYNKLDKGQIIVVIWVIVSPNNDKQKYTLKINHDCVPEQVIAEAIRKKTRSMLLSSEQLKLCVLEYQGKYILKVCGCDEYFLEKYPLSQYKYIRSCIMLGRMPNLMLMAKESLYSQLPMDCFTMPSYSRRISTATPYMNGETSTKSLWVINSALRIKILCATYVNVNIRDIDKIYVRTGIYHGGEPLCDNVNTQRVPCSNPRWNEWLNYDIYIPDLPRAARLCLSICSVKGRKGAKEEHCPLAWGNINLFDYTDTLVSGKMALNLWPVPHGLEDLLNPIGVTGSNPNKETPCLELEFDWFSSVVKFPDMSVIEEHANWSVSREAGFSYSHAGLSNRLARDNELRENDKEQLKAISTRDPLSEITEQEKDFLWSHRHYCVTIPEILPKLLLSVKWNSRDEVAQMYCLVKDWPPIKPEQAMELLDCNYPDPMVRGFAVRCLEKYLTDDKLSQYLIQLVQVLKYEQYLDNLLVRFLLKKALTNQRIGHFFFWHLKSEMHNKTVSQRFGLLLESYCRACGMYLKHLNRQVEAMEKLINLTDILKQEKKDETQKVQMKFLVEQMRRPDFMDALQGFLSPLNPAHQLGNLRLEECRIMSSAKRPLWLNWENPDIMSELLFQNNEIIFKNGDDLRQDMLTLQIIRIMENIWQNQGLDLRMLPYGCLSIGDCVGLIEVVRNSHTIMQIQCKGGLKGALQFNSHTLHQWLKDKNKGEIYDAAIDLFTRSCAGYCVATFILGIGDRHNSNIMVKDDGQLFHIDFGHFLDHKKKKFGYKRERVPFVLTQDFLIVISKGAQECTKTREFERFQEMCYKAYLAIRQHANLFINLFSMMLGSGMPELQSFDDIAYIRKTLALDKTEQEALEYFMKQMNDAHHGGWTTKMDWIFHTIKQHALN
Sequence (P27986 whole entry partner): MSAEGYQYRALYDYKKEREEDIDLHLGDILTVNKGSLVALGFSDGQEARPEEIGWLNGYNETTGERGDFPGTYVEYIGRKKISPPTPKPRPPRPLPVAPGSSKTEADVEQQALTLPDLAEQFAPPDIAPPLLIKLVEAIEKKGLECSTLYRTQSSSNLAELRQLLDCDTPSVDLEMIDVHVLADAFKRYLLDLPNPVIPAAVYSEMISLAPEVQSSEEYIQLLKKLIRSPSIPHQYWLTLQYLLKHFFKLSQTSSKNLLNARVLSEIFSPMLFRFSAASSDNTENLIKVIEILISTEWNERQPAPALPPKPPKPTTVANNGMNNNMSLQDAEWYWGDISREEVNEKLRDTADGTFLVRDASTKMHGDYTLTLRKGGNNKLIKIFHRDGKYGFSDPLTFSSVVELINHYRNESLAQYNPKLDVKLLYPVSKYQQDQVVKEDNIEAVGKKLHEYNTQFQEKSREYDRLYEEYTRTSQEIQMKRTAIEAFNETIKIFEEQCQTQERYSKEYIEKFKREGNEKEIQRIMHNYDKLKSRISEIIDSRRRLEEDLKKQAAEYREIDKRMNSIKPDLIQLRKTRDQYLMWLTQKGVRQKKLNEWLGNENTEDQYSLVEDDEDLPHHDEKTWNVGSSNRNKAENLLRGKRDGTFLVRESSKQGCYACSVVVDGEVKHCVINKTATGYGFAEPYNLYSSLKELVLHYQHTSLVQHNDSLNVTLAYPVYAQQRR
Numbers only, in µM.

molecule: COc1ccc(Nc2nc(N3CCOCC3)ncc2-c2nc(C)nc(N)n2)cn1 [Example 120]
observedProperty: Ki
testValue: 0.097
--
molecule: COc1ccc(Nc2ncc(CN3CC[S+]([O-])CC3)cc2-c2nc(C)nc(N)n2)cn1 [Example 202]
observedProperty: Ki
testValue: 0.147
--
molecule: COc1ncc(Nc2ncc(C(C)(C)CO)cc2-c2nc(C)nc(N)n2)cc1F [Example 311]
observedProperty: Ki
testValue: 0.008
--
molecule: COc1ncc(Nc2ncc(C(C)(C)O)nc2-c2cc(N)nc(C)n2)cc1F [Example 284]
observedProperty: Ki
testValue: 0.031
--
molecule: COc1ccc(Nc2ncc(N3CCN(S(C)(=O)=O)CC3)cc2-c2nc(C)nc3[nH]cnc23)cn1 [Example 99]
observedProperty: Ki
testValue: 0.023
--
molecule: COc1ccc(Nc2ncc(CN3CCNCC3)cc2-c2nc(C)nc3[nH]cnc23)cn1 [Example 84]
observedProperty: Ki
testValue: 0.097
--
molecule: Cc1nc(-c2cc(C(F)(F)F)cnc2Nc2cccc3[nH]ncc23)c2nc[nH]c2n1 [Example 65]
observedProperty: Ki
testValue: 0.119
--
molecule: COc1ncc(Nc2ncc(C(C)N3CCN(C(=O)N(C)C)CC3)cc2-c2nc(C)nc(N)n2)cc1F (stereo not shown) [Example 294]
observedProperty: Ki
testValue: 0.012
--
molecule: Cc1nc(N)nc(-c2cc(CN3CCN(C(=O)N(C)C)CC3)cnc2Nc2cnc(O)c(F)c2)n1 [Example 160]
observedProperty: Ki
testValue: 0.505
--
molecule: COc1ncc(Nc2ncc(CN3CCN4C(CCS4(=O)=O)C3)cc2-c2nc(C)nc(N)n2)cc1F (stereo not shown) [Example 383]
observedProperty: Ki
testValue: 0.007

Please state Ki for every molecule in the list that follows.
1. Cc1nc(N)nc(-c2cccnc2Nc2ccc(NC(=O)NC(C)C)nc2)n1 [Example 192]
2. Cc1nc(N)nc(-c2cc([C@@H](C)N3CCOCC3)cnc2Nc2cnc(Cl)c(NS(=O)(=O)N(C)C)c2)n1 [Example 373]
3. COc1ccc(Nc2ncc(CN3CC(N)C3)cc2-c2nc(C)nc(N)n2)cn1 [Example 231]
4. COCCOc1ccc(-c2nc(C)nc(N)n2)c(Nc2cnc(OC)c(F)c2)n1 [Example 259]
5. COc1ncc(Nc2ncc([C@@H](C)N3CCOCC3)cc2-c2nc(C)nc(N)n2)cc1F (single isomer, unassigned) [Example 291]

Ans:
0.691
0.006
0.446
0.081
0.037

// Ki lookup, molecule = COc1ccc(Nc2ncc(C(O)c3cc(Br)ccc3S(=O)(=O)N(C)C)cc2-c2nc(C)nc(N)n2)cn1 (stereo not shown) [Example 235] , result: 0.023

----------
Could you please report measured POC (Percent of control) CK1 delta for the items listed next?
target: ProfilerPro Kinase Selectivity Assay Kit kinases (Homo sapiens, UniProt P48730); assay type: biochemical; settings: CK1 delta; 1 μM compound concentration
One number for each entry, in POC.

smilesCode: COc1ccc(Nc2ncccc2-c2nc(C)nc3[nH]cnc23)cn1
POC (Percent of control) CK1 delta [POC]: 104
//
smilesCode: CCc1cnc(Nc2ccc(OC)nc2)c(-c2nc(C)nc3[nH]cnc23)c1
POC (Percent of control) CK1 delta [POC]: 97
//
smilesCode: c1cnc(Nc2cccc3[nH]ccc23)c(-c2ncnc3[nH]cnc23)c1
POC (Percent of control) CK1 delta [POC]: 72
//
smilesCode: Cc1cnc(Nc2cccc3[nH]ccc23)c(-c2nc(C)nc(N)n2)c1
POC (Percent of control) CK1 delta [POC]: 91

Note to self: POC (Percent of control) CK1 delta recorded for Cc1nc(N)nc(-c2cccnc2Nc2cccc(O)c2)n1 was 70
